TARGET_OR_TEST_SYSTEM: Albumin (Bos taurus) (UniProt P02769)
Sequence (P02769 whole entry, looked up): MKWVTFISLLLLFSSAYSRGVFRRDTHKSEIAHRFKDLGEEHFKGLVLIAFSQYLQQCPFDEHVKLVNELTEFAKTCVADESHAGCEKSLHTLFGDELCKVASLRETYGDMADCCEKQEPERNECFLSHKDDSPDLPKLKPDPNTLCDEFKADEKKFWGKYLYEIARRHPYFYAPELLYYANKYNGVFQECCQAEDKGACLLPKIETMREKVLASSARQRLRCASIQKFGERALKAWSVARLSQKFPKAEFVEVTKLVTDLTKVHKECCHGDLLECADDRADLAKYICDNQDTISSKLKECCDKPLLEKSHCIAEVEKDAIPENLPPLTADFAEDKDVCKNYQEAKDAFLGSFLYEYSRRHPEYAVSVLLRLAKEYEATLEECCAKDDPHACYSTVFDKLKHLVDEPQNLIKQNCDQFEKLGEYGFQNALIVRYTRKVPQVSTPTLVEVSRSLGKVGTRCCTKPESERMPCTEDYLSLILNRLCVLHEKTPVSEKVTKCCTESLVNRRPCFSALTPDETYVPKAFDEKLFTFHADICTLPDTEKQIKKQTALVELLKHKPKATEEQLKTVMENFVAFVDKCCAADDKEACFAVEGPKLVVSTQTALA
MEASUREMENT_PROTOCOL: bovine serum albumin binders on microarray, profiling panel, artefact control for SMM control protein annotation, biochemical, small-molecule microarray, Alexa647 label, 635/667 nm fluorescence (AID 1118);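 also: score merges 667 nm emission intensity and signal-to-noise per printed compound spot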
PARTICULARS: BSA-A647 binding, fluorescence 635 nm, higher = more signal
MEASURE_NAME: composite z-score

Recorded composite z-score, per entry:
{"COMPOUND": "CN1C(=O)C2C=CC(C(O)C3CCCCC3)N(Nc3ccc([N+](=O)[O-])cc3[N+](=O)[O-])C2C1=O (centres undefined)", "composite z-score": 0.892}
{"COMPOUND": "O=C1C2C=CC(C(O)c3c(F)cccc3Cl)N(Nc3ccccc3)C2C(=O)N1c1ccccc1 (centres undefined)", "composite z-score": 0.876}
{"COMPOUND": "CCCCc1cn(C[C@H](Cc2ccccc2)NC(=O)N[C@H](CO)CCc2oc(C(C)=O)c(C(=O)OC)c2C(=O)OC)nn1", "composite z-score": 0.25}
{"COMPOUND": "C=C(COC)/C(=C/C[C@@H](OC(C)=O)c1ccc(CO)o1)c1cnc2ccccc2c1", "composite z-score": 0.555}
{"COMPOUND": "COCCn1c(C(=O)N2CCCC2)cc2c1C[C@H]1CN(C(=O)c3ccccc3)[C@@](Cc3ccc(F)cc3)(C(=O)OC)[C@@H]21", "composite z-score": 1.02}
{"COMPOUND": "O=C1OCCC/C=C\\[C@H]2OC34C=CCN(Cn5nnc6ccccc65)C(=O)[C@H]3N(CCO)C(=O)[C@@H]4C12 (some centres undefined)", "composite z-score": 0.926}
{"COMPOUND": "COc1ccc([C@H]2OC[C@@H]3CC4(CC=CC4)C(=O)N32)cc1", "composite z-score": -0.505}
{"COMPOUND": "[N-]=[N+]=NCc1ccccc1[C@@H]1OC(c2ccc(OCCCO)cc2)=N[C@]1(CCS(=O)(=O)c1ccccc1)C(=O)NCCN1CCOCC1", "composite z-score": 0.899}
{"COMPOUND": "COCCOC(=O)N1C(=O)[C@@]2(c3cc(C#CC4=CCCCC4)ccc31)[C@H](C(=O)Nc1nc3ccccc3s1)[C@H]1C(=O)O[C@H](c3ccccc3)[C@H](c3ccccc3)N1[C@@H]2c1ccc(OCCO)cc1", "composite z-score": 0.1}
{"COMPOUND": "COc1ccc(CCNC(=O)[C@@]2(Sc3ccc(C)cc3)CC(=O)N(C3CCCCC3)[C@@H]2c2ccc(CO)cc2I)cc1", "composite z-score": 0.805}

Ask: Can you look up the measured composite z-score of N#Cc1ccc(NN2C(C(O)c3c(F)cccc3Cl)C=CC3C(=O)N(c4ccccc4)C(=O)C32)cc1 (centres undefined) for me?
Reply: 1.09

Ask: Can you look up the measured composite z-score of "COc1ccc(C#Cc2ccc3c(c2)[C@]2(C(=O)N3)[C@H](c3ccccc3OCCO)N3[C@H](c4ccccc4)[C@H](c4ccccc4)OC(=O)[C@H]3[C@@H]2C(=O)O)cc1" for me?
Reply: 0.702

Ask: Can you look up the measured composite z-score of "COc1ccc(CCNC(=O)[C@@H]2c3ccccc3C(=O)N(C3Cc4ccccc4C3)[C@H]2c2ccc(CO)cc2)cc1" for me?
Reply: 0.397

Ask: Can you look up the measured composite z-score of "C=CCOC(=O)[C@@H]1[C@H]2C(=O)O[C@H](c3ccccc3)[C@H](c3ccccc3)N2[C@H](c2ccc(OCCOC(=O)[C@@H]3C[C@@H]4C(=O)N[C@@H](CCCCN(C)C)C(=O)N4[C@@H]3c3ccc(O)cc3)cc2)[C@@]12C(=O)Nc1ccc(I)cc12" for me?
Reply: 0.848

Ask: Can you look up the measured composite z-score of "CN(C)C(=O)[C@@]1(Cc2ccccc2CN=[N+]=[N-])N=C(c2ccc(OCCCO)cc2)O[C@H]1c1ccccc1" for me?
Reply: 0.722
